Give measured abundance fitness for each item. Keep answers brief.
B1: Far upstream element-binding protein 1, residues 184 to 257; numbered along this chain, Q96AE4 (parent)
chain: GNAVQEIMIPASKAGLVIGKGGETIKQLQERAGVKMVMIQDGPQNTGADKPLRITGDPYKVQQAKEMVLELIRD

Variants of: B1
Test Details: abundance fitness (aPCA) (normalised: wild type 0, dead -1); higher = more abundant; growth selection in yeast, the domain comes from the species named
Assay Context: Homo sapiens
Numbers only.

Worked examples follow.
residue_codes="GNAVQEIMIPASKAGLVIGKGGETIKQLQERAGVKMVMIQDGPQNTGADKPLRITGDPYKVQQAKEMVLEPIRD [L71P]" value=-0.481
residue_codes="GNAVQEIMIPASKAGLVIGKGGETIKQLQERAGVKMVMIQDGPQNTWADKPLRITGDPYKVQQAKEMVLELIRD [G47W]" value=-0.157
residue_codes="GNAVQEIMIPASKAGLVIGKGGETIKQLQERAGVKMVMIQDGPQNTGADKPLRITGDPYKVQQAGEMVLELIRD [K65G]" value=-0.086
residue_codes="GNAVQEIMIPASKAGLVIGKGGETIKQLQERAGVKMVMIQDGPQNTGADKPLRITGDPYKVQQAKEMYLELIRD [V68Y]" value=-0.753
residue_codes="GNAVQEIMIPASKAGLVIGKGGETIKQLQERAGVKMVMIQDGPQNTGADKPLRITGDPYKVQYAKEMVLELIRD [Q63Y]" value=-0.027

// for each variant below, give its abundance fitness
1. GNAVQEIMIPASKAGLVIGKGGETIKQLQERAGVKMVMIQDGPQNTGADKPLRITHDPYKVQQAKEMVLELIRD [G56H]
2. GNAVQEIMIPASKAGLVIGKGGETIKQVQERAGVKMVMIQDGPQNTGADKPLRITGDPYKVQQAKEMVLELIRD [L28V]
3. GNAVQEIMIPASKAGLVIGKGGETIKQLQERAGVKMVMIQDGPQNTGADKPLRITGDPYKVQQAKEMVLELIED [R73E]

Reply text:
1. -1.09
2. -0.155
3. 0.088
